# System: ATP;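 further: ATP exposure 15 min at 22 °C before imaging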
# procedure-text: switch fluorescence ratio, 500 uM ATP over buffer (Cy3 cluster intensity, sum of 5 cycles each) (fold (ratio)); higher = stronger signal-on switching upon ATP binding; sequences stand for … in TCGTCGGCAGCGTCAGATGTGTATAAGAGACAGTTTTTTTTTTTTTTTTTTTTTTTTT…TC
# recorded-conditions: aptamer strand: ATP DNA aptamer (quencher-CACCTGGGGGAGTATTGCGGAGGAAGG + anchor), 100 nM annealed; ATP concentration: 500 uM

| construct-sequence | switch fluorescence ratio |
| --- | --- |
| CGGTCCCATT | 0.992 |
| AGAGAGGGGC | 0.971 |
| TTGCTAGGGA | 1.01 |
| CTACATCTTA | 1.02 |
| AAAGAAGCTT | 1.02 |
| CGGGTGTGTG | 0.981 |
| GAACCGGATG | 1 |
| GAGTTCCTGT | 1.01 |
| CTATGTTTTG | 0.979 |
| TATTGGGTCA | 0.996 |
| AGATCATGAG | 0.971 |
| GTGTGGGAAG | 1.01 |
| GTAGGCCATG | 1 |
| GCACCTTGAG | 1 |
| AGATTGAGAA | 0.998 |
| TTTAAAAAAT | 1.02 |
| TATAGATGTG | 1.01 |
| GGGAGTCCAA | 0.995 |
| CTCGGACGGG | 0.995 |
| GGGGAAAAGG | 1 |
| GATGGGCCGG | 1 |
| TGGTTGATGA | 0.98 |
| GGGTCCGAAT | 1.02 |
| GTTGTTACTG | 1.02 |
| GAAGTTTTTG | 0.993 |
| AATATATGGG | 0.973 |
| GCTTTATTGC | 1.01 |
| TTTTATGAGG | 0.973 |
| GTTAGGTAGC | 0.997 |
| TGTCGGGTTA | 1.01 |
| TGAATTTGGG | 0.997 |
| ATTGTTTTAG | 1.01 |
| GAAGTCGTGC | 0.999 |
| ATGATAGCTT | 1 |
| GCGGCTTAAC | 1.02 |
| ACTGATGAAG | 0.991 |
| CGTTTGTACT | 1.02 |
| CGTTACTTAG | 1.02 |
| TGAACTCGGG | 0.989 |
| TTTAGGATAA | 1.02 |
| CGTGTGGTTC | 1.02 |
| GGTCATGAGG | 0.989 |
| TAGTTGGGGG | 1 |
| ATGCAGCGGG | 1.01 |
| GGCGGGAATT | 0.972 |
| AAGGGGGTAG | 1.01 |
| ACAAGAAAGG | 1.01 |
| TAAGTGCAAG | 1.01 |
| ATTCAACGGT | 1.02 |

---

Here, each record is paired with measured switch fluorescence ratio data.
# System: ATP;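 further: ATP exposure 15 min at 22 °C before imaging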
# procedure-text: switch fluorescence ratio, 500 uM ATP over buffer (Cy3 cluster intensity, sum of 5 cycles each) (fold (ratio)); higher = stronger signal-on switching upon ATP binding; sequences stand for … in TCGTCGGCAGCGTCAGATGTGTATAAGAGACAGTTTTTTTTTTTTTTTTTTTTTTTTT…TC
# recorded-conditions: aptamer strand: ATP DNA aptamer (quencher-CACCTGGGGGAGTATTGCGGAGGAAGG + anchor), 100 nM annealed; ATP concentration: 500 uM

| construct-sequence | switch fluorescence ratio |
| --- | --- |
| CCGTGAGGGT | 1.02 |
| GAAAAGTATC | 1 |
| GGTCGGGAGA | 0.96 |
| TGATATGTGG | 1.01 |
| TGTTGTTGGT | 1.02 |
| TTATGTTGTT | 1 |
| GAATATCTGG | 0.97 |
| CGAAGAGGGA | 0.986 |
| TACTTTTCAA | 1.01 |
| TTTGGCTACG | 1.01 |
| TAAATTTTAA | 0.982 |
| CGCTGGCATG | 1 |
| ACGTTTAGTG | 1.02 |
| TTTTGGCCCC | 1.07 |
| CGGGGGTGGG | 1.01 |
| TTTATGTATT | 1 |
| AATTAGGTTT | 1 |
| AAAATTTAAA | 1 |
| CGGCCTACAG | 1.05 |
| GGGCCCGGGT | 0.994 |
| AAAAATGGCT | 1.04 |
| ATAGGACATC | 1.03 |
| GTGAGAGGGT | 0.998 |
| GGAAGAATGG | 0.985 |
| AATGTCTGTA | 1.01 |
| TCGCGGCTAT | 1.56 |
| CTTAAAACGT | 1.06 |
| GATTTGAGGC | 0.987 |
| TTTTGGAGGT | 1.01 |
| GATGTCCACG | 0.987 |
| CGAGGGGA | 1.02 |
| CGGGTTTGGT | 1.01 |
| GATTATGATT | 0.971 |
| ACCGGGGTTA | 0.986 |
| AAGTCGGTTA | 1 |
| ATTTTTGACA | 1 |
| TTATTAATCT | 0.997 |
| GAGGAAGGGG | 1 |
| ATGCTAAAAG | 1.01 |
| GCGGTTGCTG | 0.954 |
| GGTTTGATAT | 0.972 |
| ATTTCTCTTG | 0.998 |
| TTTGAGCTGG | 0.996 |
| TGGTTTTTAC | 1.01 |
| AAGTGTTTTA | 1 |
| GGGAGGTCGG | 1.01 |
| TGGTAGGGTT | 0.969 |
| ACAGGTTGCG | 0.997 |
| TCCCAGAACG | 1.06 |
| CCTAAGTGTT | 1.06 |
| GTGGCGAGGG | 0.996 |
| TTAATAGTGT | 1 |
| TTTGATATAG | 0.994 |
| TACTGGTCCA | 1.05 |
| CGTGTGTTGC | 1 |
| CTTTAGCCGG | 1.02 |
| GGGGACGGAT | 1.04 |

---

# Tested on: ATP;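 further: ATP exposure 15 min at 22 °C before imaging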
# procedure-text: switch fluorescence ratio, 500 uM ATP over buffer (Cy3 cluster intensity, sum of 5 cycles each) (fold (ratio)); higher = stronger signal-on switching upon ATP binding; sequences stand for … in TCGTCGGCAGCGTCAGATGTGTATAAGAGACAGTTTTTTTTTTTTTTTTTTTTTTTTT…TC
# recorded-conditions: aptamer strand: ATP DNA aptamer (quencher-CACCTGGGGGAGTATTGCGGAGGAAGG + anchor), 100 nM annealed; ATP concentration: 500 uM
Here, each record is paired with measured switch fluorescence ratio data.
parameter-measured: switch fluorescence ratio

| construct-sequence | parameter-measured | reported-measurement |
| --- | --- | --- |
| CCCGTGCCTA | switch fluorescence ratio | 1.03 |
| GATAGAAGTA | switch fluorescence ratio | 0.973 |
| CAACGCGTTG | switch fluorescence ratio | 1 |
| ATGTTAGGG | switch fluorescence ratio | 0.98 |
| TAGGTAGCTT | switch fluorescence ratio | 1.02 |
| TTGGGCCGGG | switch fluorescence ratio | 0.991 |
| TCAAGGGTCC | switch fluorescence ratio | 0.996 |
| TTTTCCTGGA | switch fluorescence ratio | 1.03 |
| ACTTCGGGGC | switch fluorescence ratio | 1.12 |
| GGGGGAAGAG | switch fluorescence ratio | 1.01 |
| GGGGGAACCG | switch fluorescence ratio | 0.994 |
| GTTTGTAGTT | switch fluorescence ratio | 0.968 |
| ACCCAAACAA | switch fluorescence ratio | 1.06 |
| AATAGATAGT | switch fluorescence ratio | 0.993 |
| GATAAGGAAG | switch fluorescence ratio | 1.02 |
| AAGAAAGGCA | switch fluorescence ratio | 0.998 |
| TAGGGAAATT | switch fluorescence ratio | 1.04 |
| TTATGCGGTT | switch fluorescence ratio | 0.992 |
| GGCGGAGCTA | switch fluorescence ratio | 1.03 |
| ATATTAGATT | switch fluorescence ratio | 1.02 |
| TAGCTGGGGC | switch fluorescence ratio | 1.02 |
| GAGTGCGGGA | switch fluorescence ratio | 1.02 |
| CTACAAAAAA | switch fluorescence ratio | 1.02 |
| GAGAGTTGTG | switch fluorescence ratio | 0.988 |
| GGAAGGTGGG | switch fluorescence ratio | 1.15 |
| CACAGTGAAG | switch fluorescence ratio | 0.985 |
| AGAAGGCGGG | switch fluorescence ratio | 0.985 |
| ATTGATGATT | switch fluorescence ratio | 0.993 |
| AGGCCGGTTT | switch fluorescence ratio | 1.02 |
| TGATGGGGG | switch fluorescence ratio | 0.981 |
| CAGTCTTGC | switch fluorescence ratio | 1.03 |
| GCGCAAATTT | switch fluorescence ratio | 0.999 |
